Values compiled from ChEMBL document CHEMBL1125096.

Catalogue of T/C readings, one per entry.
tested on: L1210 (1565); assay: Antitumor activity against L-1210 leukemia cell line in BDF1 mice after injecting 2 mg/kg intraperitoneal dose; type: functional, Mus musculus
Mention the unit after the number when you answer.

compound: COc1cccc2c1C(=O)c1c(O)c3c(c(O)c1C2=O)C[C@@](O)(C(=O)CO)C[C@@H]3O[C@H]1C[C@H](N)[C@H](O)[C@H](C)O1.Cl [DOXORUBICIN HYDROCHLORIDE]
T/C: 330%

compound: C[C@H]1C[C@H](N)C[C@H](O[C@H]2C[C@](O)(COC(=O)Nc3ccccc3)Cc3c(O)c4c(c(O)c32)C(=O)c2ccccc2C4=O)O1.Cl
T/C: 500%

compound: COc1ccc(NC(=O)OC[C@]2(O)Cc3c(O)c4c(c(O)c3[C@@H](OC3CC(N)C(O)C(C)O3)C2)C(=O)c2ccccc2C4=O)cc1.Cl (some centres undefined)
T/C: 230%

Challenge: Return value of T/C for input CC1OC(O[C@H]2C[C@](O)(COC(=O)Nc3ccc(Cl)cc3)Cc3c(O)c4c(c(O)c32)C(=O)c2ccccc2C4=O)CC(N)C1O.Cl (some centres undefined) , no commentary.
Response given: 370%
